Test system: ASPS-1 complex tumor spheroids, viability
Assay method text: Anticancer human tumor ASPS-1 cell line growth inhibition;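 further: spheroids exposed to agents for 7 days after 3 days of growth; 100% = DMSO vehicle treated spheroids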
Cond: second compound 0.000949 µM; first compound 0.316 µM; active compounds read low

Compound	viability, T/C (%)
COc1ccc([C@@H](O)c2cc(-c3ncnc4cc(N5CCOCC5)ccc34)c(F)cc2Cl)nn1 + COc1cc2c(cc1O)CCNC21CSC2c3c(OC(C)=O)c(C)c4c(c3C(COC1=O)N1C(O)C3Cc5cc(C)c(OC)c(O)c5C(C21)N3C)OCO4	55
COc1cc(C)[nH]c(=O)c1CN1CCc2c(Cl)cc(C(OC)C3COC3)c(Cl)c2C1=O (stereo unspecified) + COc1cc2c(cc1O)CCNC21CSC2c3c(OC(C)=O)c(C)c4c(c3C(COC1=O)N1C(O)C3Cc5cc(C)c(OC)c(O)c5C(C21)N3C)OCO4	72.1
Cc1cc(C)c(CNC(=O)c2cc(-c3ccc(CN4CCOCC4)cc3)cc3c2cnn3C2CCCC2)c(=O)[nH]1 + COc1cc2c(cc1O)CCNC21CSC2c3c(OC(C)=O)c(C)c4c(c3C(COC1=O)N1C(O)C3Cc5cc(C)c(OC)c(O)c5C(C21)N3C)OCO4	39.9
CC(C)n1c(=O)n(C)c2cnc3cc(F)c(-c4ccc(OCCCN5CCCCC5)nc4)cc3c21 + COc1cc2c(cc1O)CCNC21CSC2c3c(OC(C)=O)c(C)c4c(c3C(COC1=O)N1C(O)C3Cc5cc(C)c(OC)c(O)c5C(C21)N3C)OCO4	35.3
[2H]c1nc(C)nc([2H])c1-c1cc(NC[C@@H](C)c2cccc3c(C(=O)NC)ccnc23)ncn1 + COc1cc2c(cc1O)CCNC21CSC2c3c(OC(C)=O)c(C)c4c(c3C(COC1=O)N1C(O)C3Cc5cc(C)c(OC)c(O)c5C(C21)N3C)OCO4	71.1
CC1COCCN1c1cc(-c2ccnn2C)c2ccnc(-c3ccn[nH]3)c2n1 (stereo unspecified) + COc1cc2c(cc1O)CCNC21CSC2c3c(OC(C)=O)c(C)c4c(c3C(COC1=O)N1C(O)C3Cc5cc(C)c(OC)c(O)c5C(C21)N3C)OCO4	21.3

---

Entries and their measured viability, T/C follow.
Test system: ASPS-1 complex tumor spheroids, viability
Assay method text: Anticancer human tumor ASPS-1 cell line growth inhibition;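 further: spheroids exposed to agents for 7 days after 3 days of growth; 100% = DMSO vehicle treated spheroids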
Cond: second compound 0.03 µM; first compound 0.0316 µM; active compounds read low

Molecule	Target	viability, T/C / %
Cc1cc(C)c(CNC(=O)c2cc(-c3ccc(CN4CCOCC4)cc3)cc3c2cnn3C2CCCC2)c(=O)[nH]1 + CC[C@@]1(O)C(=O)OCc2c1cc1n(c2=O)Cc2cc3c(CN(C)C)c(O)ccc3nc2-1	ASPS-1 complex tumor spheroids, viability	95.8
COc1cc(C)[nH]c(=O)c1CN1CCc2c(Cl)cc(C(OC)C3COC3)c(Cl)c2C1=O (stereo not drawn) + CC[C@@]1(O)C(=O)OCc2c1cc1n(c2=O)Cc2cc3c(CN(C)C)c(O)ccc3nc2-1	ASPS-1 complex tumor spheroids, viability	84.6
CC1COCCN1c1cc(-c2ccnn2C)c2ccnc(-c3ccn[nH]3)c2n1 (stereo not drawn) + CC[C@@]1(O)C(=O)OCc2c1cc1n(c2=O)Cc2cc3c(CN(C)C)c(O)ccc3nc2-1	ASPS-1 complex tumor spheroids, viability	38.7
